Listed compounds paired with reported %Inh
test system: EPHA6; conditions: concentration: 1 μM, replicates: in singlicate; n = 1;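 also: KINOMEscan kinase panel screen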
Respond numerically; units are % and should not be typed.

Previously resolved entries follow.
> print(dat)
                    structure.smiles.string  target.or.system  unit.string  test.value
1  CN1CCC(n2cnc(-c3ccc(F)cc3)c2-c2ccnc(NC3CCNCC3)n2)CC1             EPHA6            %           5
2  Nc1nc(-c2ccc3c(N)n[nH]c3c2)cc(N2CCCCC2)n1             EPHA6            %           0
3  CS(=O)(=O)CCNCc1ccc(-c2ccc3ncnc(Nc4ccc(OCc5ccccc5)c(Cl)c4)c3c2)o1.Cl             EPHA6            %          15

Please find the next compound below.
Please look up its %Inh: `Cn1ccc2ncnc(Nc3ccc(Oc4cccc(Cl)c4)c(Cl)c3)c21`
21

###

Entries and their measured %Inh follow.
tested on: AURKB; conditions: concentration: 1 μM, replicates: in singlicate; n = 1
Unit % implied. Number only.

Guide cases for %Inh, answers given:
> print(dat)
                                   compound  target.or.system  test.value
1  Fc1ccc(Nc2nccc(-c3c(-c4ccc(Cl)cc4)nn4ncccc34)n2)cc1F [GW829058]             AURKB          27
2  Nc1nc(-c2ccc3c(N)n[nH]c3c2)cc(N2CCC[C@@H](C(=O)Nc3ccccc3)C2)n1.O=C(O)C(F)(F)F.O=C(O)C(F)(F)F [GSK2288359]             AURKB           0
3  c1ccc(-c2ccc3c(-c4ccnc(Nc5ccc6c(c5)OCCO6)n4)cnn3n2)cc1 [GW818941]             AURKB           0

// next item, %Inh requested
Recorded %Inh for Cl.c1ccc(Cn2ccc3cc(Nc4ncnc5ccccc45)ccc32)cc1 [GW275568] , please?
30

###

test system: MEK5; construct: gene MAP2K5; conditions: concentration: 1 μM, replicates: in singlicate; n = 1
In this section we review reported %Inh values for a set of molecules.

> print(dat)
                    structure.smiles.string  measured.quantity  test.value
1    Clc1cccc(-c2nc(Nc3ccncc3)c3ccccc3n2)c1               %Inh         14%
2  COc1ccc(NC(=O)c2ccc(-c3cc(-c4nnc(C)o4)ccc3C)cc2)cc1               %Inh          0%
3  NC(=O)c1sc(-n2cnc3ccccc32)cc1OCc1ccccc1F               %Inh         69%
4      Nc1nc(-c2cccnc2)c(-c2ccnc3ccccc23)s1               %Inh         70%

# input for lookup
Give MEK5 %Inh for `COC(=O)c1cccc(NC(=O)NCCNc2ccnc(Nc3ccc(F)cc3)n2)c1`
9%

###

Parameter: %Inh. Scope: all listed entries.
system: TTK; conditions: concentration: 1 μM, replicates: in singlicate; n = 1

As a guide, the following entries are already answered.
> print(dat)
                    structure.smiles.string  measured.quantity  test.value
1               CCC(CC)(CC)n1cnc2c(N)ncnc21               %Inh          0%
2  O=C(NCCCN1CCCC1=O)c1cnc(NCc2cc(Cl)ccc2Cl)nc1NC1CCNCC1               %Inh          0%
3  Nc1nccc2scc(-c3ccc4c(c3)CCN4C(=O)Cc3cc(F)ccc3F)c12               %Inh          2%
4  COc1cc2c(Nc3cccc(NC(=O)c4ccccc4)c3)ncnc2cc1OCCCN1CCOCC1               %Inh         29%

What does the data say about its %Inh? Entry: `CN1c2ccc(-c3ccc(C(=O)NCCO)cc3)cc2-c2[nH]ncc2S1(=O)=O`
10%
